Each recorded value in this set is attributed to patent US8673848.

Kindly state hAPJ Ca2+ Flux EC50 for each of the entries shown.
Subject of test: T1, human APJ receptor (hAPJ) (human, UniProt P35414 1-380)
T1 sequence (looked up): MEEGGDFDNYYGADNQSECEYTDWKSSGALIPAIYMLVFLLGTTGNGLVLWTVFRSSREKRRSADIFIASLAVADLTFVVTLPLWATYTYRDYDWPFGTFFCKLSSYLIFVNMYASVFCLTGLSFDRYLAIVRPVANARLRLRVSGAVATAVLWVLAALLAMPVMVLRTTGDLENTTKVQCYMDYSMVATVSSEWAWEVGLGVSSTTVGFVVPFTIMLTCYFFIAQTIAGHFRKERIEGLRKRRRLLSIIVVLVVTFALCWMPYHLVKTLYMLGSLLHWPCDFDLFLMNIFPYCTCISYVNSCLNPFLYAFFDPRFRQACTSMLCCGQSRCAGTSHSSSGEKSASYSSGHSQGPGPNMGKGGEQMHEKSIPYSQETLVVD
Test name: cell-based or functional assay
Bridges are numbered along the chain shown (N, C = ends). [ ]: non-standard residue; d: D form. The star is where a group is joined. 3Pal = N[C@@H](Cc1cccnc1)C(=O)O; Myristoyl = CCCCCCCCCCCCCC(=O)*; pGlu = O=C1CC[C@@H](C(=O)O)N1; NHPhenethyl = c1ccc(CCN*)cc1; Nle = CCCC[C@H](N)C(=O)O; AEEA = NCCOCCOCC(=O)O
Please reply with the bare figure in nM and do not write the unit itself.

Record request: hAPJ Ca2+ Flux EC50 value, item [pGlu]RPRLCHK(Myristoyl)GP[Nle]CF-OH (disulfide 6-12; SMILES CCCCCCCCCCCCCC(=O)NCCCC[C@@H]1NC(=O)[C@H](Cc2c[nH]cn2)NC(=O)[C@@H](NC(=O)[C@H](CC(C)C)NC(=O)[C@H](CCCNC(=N)N)NC(=O)[C@@H]2CCCN2C(=O)[C@H](CCCNC(=N)N)NC(=O)[C@@H]2CCC(=O)N2)CSSC[C@@H](C(=O)N[C@@H](Cc2ccccc2)C(=O)O)NC(=O)[C@H](CCCC)NC(=O)[C@@H]2CCCN2C(=O)CNC1=O) [Example 61: pE-R-P-R-L-C-H-K(Myristoyl)-G-P-Nle-C-F-OH]
89.2

Look at this binder and give its reported hAPJ Ca2+ Flux EC50. Myristoyl-[AEEA][AEEA][AEEA][AEEA]QRPRLCHKGP[Nle]C[dF]-OH (disulfide 10-16; SMILES CCCCCCCCCCCCCC(=O)NCCOCCOCC(=O)NCCOCCOCC(=O)NCCOCCOCC(=O)NCCOCCOCC(=O)N[C@@H](CCC(N)=O)C(=O)N[C@@H](CCCNC(=N)N)C(=O)N1CCC[C@H]1C(=O)N[C@@H](CCCNC(=N)N)C(=O)N[C@@H](CC(C)C)C(=O)N[C@H]1CSSC[C@@H](C(=O)N[C@H](Cc2ccccc2)C(=O)O)NC(=O)[C@H](CCCC)NC(=O)[C@@H]2CCCN2C(=O)CNC(=O)[C@H](CCCCN)NC(=O)[C@H](Cc2c[nH]cn2)NC1=O) [Example 60: Myristoyl-O2Oc-O2Oc-O2Oc-O2Oc-Q-R-P-R-L-C-H-K-G-P-Nle-C-f-OH]
8.15

Any idea what its hAPJ Ca2+ Flux EC50 is? The binder is [pGlu]RPRLCHKGP[Nle]C[dF]-OH (disulfide 6-12; SMILES CCCC[C@@H]1NC(=O)[C@@H]2CCCN2C(=O)CNC(=O)[C@H](CCCCN)NC(=O)[C@H](Cc2c[nH]cn2)NC(=O)[C@@H](NC(=O)[C@H](CC(C)C)NC(=O)[C@H](CCCNC(=N)N)NC(=O)[C@@H]2CCCN2C(=O)[C@H](CCCNC(=N)N)NC(=O)[C@@H]2CCC(=O)N2)CSSC[C@@H](C(=O)N[C@H](Cc2ccccc2)C(=O)O)NC1=O) [Example 13: pE-R-P-R-L-C-H-K-G-P-Nle-C-f-OH]
2.26

Return reported hAPJ Ca2+ Flux EC50; argument: [pGlu]RPRLCHKGP[3Pal]CF-OH (disulfide 6-12; SMILES CC(C)C[C@H](NC(=O)[C@H](CCCNC(=N)N)NC(=O)[C@@H]1CCCN1C(=O)[C@H](CCCNC(=N)N)NC(=O)[C@@H]1CCC(=O)N1)C(=O)N[C@H]1CSSC[C@@H](C(=O)N[C@@H](Cc2ccccc2)C(=O)O)NC(=O)[C@H](Cc2cccnc2)NC(=O)[C@@H]2CCCN2C(=O)CNC(=O)[C@H](CCCCN)NC(=O)[C@H](Cc2c[nH]cn2)NC1=O) [Example 47: pE-R-P-R-L-C-H-K-G-P-(3-PyA)-C-F-OH]
2.41

Field request: hAPJ Ca2+ Flux EC50 | item: [pGlu]RPRLKHFGP[Nle]D-NHPhenethyl (lactam 6-12; SMILES CCCC[C@@H]1NC(=O)[C@@H]2CCCN2C(=O)CNC(=O)[C@H](Cc2ccccc2)NC(=O)[C@H](Cc2c[nH]cn2)NC(=O)[C@@H](NC(=O)[C@H](CC(C)C)NC(=O)[C@H](CCCNC(=N)N)NC(=O)[C@@H]2CCCN2C(=O)[C@H](CCCNC(=N)N)NC(=O)[C@@H]2CCC(=O)N2)CCCCNC(=O)C[C@@H](C(=O)NCCc2ccccc2)NC1=O) [Example 1: pE-R-P-R-L-K-H-F-G-P-Nle-D-Phenethylamine]
90.1
